- Tested target: human NTCP (Homo sapiens)
- Experiment description: Screening taurocholate uptake assay (96-well, [14C]taurocholate, 10 µM drug)
- Measurement parameters: screening taurocholate uptake, 10 µM drug
Where a name gives a salt, the structure may show the parent alone.
Assign class by B-score functional assay: not lower than -0.6 means label 1; lower than -0.6 means label 0.

[
  {
    "Compound": "CN1C[C@H](CNC(=O)OCc2ccccc2)C[C@@H]2c3cccc4c3c(cn4C)C[C@H]21 [Metergoline]",
    "Class": "label 1"
  },
  {
    "Compound": "CC(C)n1c(/C=C/C(O)CC(O)CC(=O)O)c(-c2ccc(F)cc2)c2ccccc21 (centres unmarked) [Fluvastatin sodium salt]",
    "Class": "label 0"
  },
  {
    "Compound": "COC1=C(OC)C(=O)C(CCCCCCCCCCO)=C(C)C1=O [Idebenone]",
    "Class": "label 1"
  },
  {
    "Compound": "CC(O)(CS(=O)(=O)c1ccc(F)cc1)C(=O)Nc1ccc(C#N)c(C(F)(F)F)c1 (centres unmarked) [Bicalutamide]",
    "Class": "label 1"
  },
  {
    "Compound": "COC(=O)C1=C(C)NC(C)=C(C(=O)OC(C)C)C1c1cccc2nonc12 (centres unmarked) [Isradipine]",
    "Class": "label 0"
  },
  {
    "Compound": "NC[C@H]1CC[C@H](C(=O)O)CC1 [Tranexamic acid]",
    "Class": "label 1"
  },
  {
    "Compound": "CC(=O)NCCCS(=O)(=O)O [Acamprosate calcium]",
    "Class": "label 1"
  },
  {
    "Compound": "C=C1C[C@@H]2[C@H](CC[C@]3(C)C(=O)CC[C@@H]23)[C@@]2(C)C=CC(=O)C=C12 [Exemestane]",
    "Class": "label 0"
  }
]

====

- Experiment description: WST-1 cytotoxicity, wildtype U2OS cells
- Measurement parameters: human

[
  {
    "Structure as smiles": "COc1cc(C(=O)NS(=O)(=O)c2ccccc2C)ccc1Cc1cn(C)c2ccc(NC(=O)OC3CCCC3)cc12",
    "viability at 1 µM / %": 87.7
  },
  {
    "Structure as smiles": "Cc1c(Cl)cccc1Nc1ccccc1C(=O)O",
    "viability at 1 µM / %": 94.7
  }
]

====

- Tested target: human NTCP (Homo sapiens, UniProt Q14973)
- Sequence (Q14973 whole entry): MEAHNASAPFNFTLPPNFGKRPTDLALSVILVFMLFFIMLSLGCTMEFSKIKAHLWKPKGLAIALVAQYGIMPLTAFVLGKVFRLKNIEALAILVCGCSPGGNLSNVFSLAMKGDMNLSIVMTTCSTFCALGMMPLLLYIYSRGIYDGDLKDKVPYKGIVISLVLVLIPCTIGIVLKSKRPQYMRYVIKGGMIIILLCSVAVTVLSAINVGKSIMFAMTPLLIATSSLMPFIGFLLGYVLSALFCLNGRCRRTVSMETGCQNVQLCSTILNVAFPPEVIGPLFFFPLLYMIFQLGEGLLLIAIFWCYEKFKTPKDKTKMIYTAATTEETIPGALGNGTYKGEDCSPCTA
- Experiment description: Screening taurocholate uptake assay (96-well, [14C]taurocholate, 10 µM drug)
- Measurement parameters: screening taurocholate uptake, 10 µM drug
Where a name gives a salt, the structure may show the parent alone.
Assign class by B-score functional assay: not lower than -0.4 means Met; lower than -0.4 means Not met.

[
  {
    "Compound": "Nc1ccc(/N=N/c2ccccc2)c(N)n1 [Phenazopyridine hydrochloride]",
    "Class": "Met"
  },
  {
    "Compound": "CNCC[C@@H](Oc1ccccc1C)c1ccccc1 [Tomoxetine hydrochloride]",
    "Class": "Met"
  },
  {
    "Compound": "C=C(NC(=O)C(=C)NC(=O)c1csc(C2=N[C@@H]3c4csc(n4)[C@H]4NC(=O)c5csc(n5)[C@H]([C@](C)(O)[C@@H](C)O)NC(=O)[C@H]5CSC(=N5)/C(=C/C)NC(=O)[C@H]([C@@H](C)O)NC(=O)c5csc(n5)[C@]3(CC2)NC(=O)[C@H](C)NC(=O)C(=C)NC(=O)[C@H](C)NC(=O)[C@H]([C@@H](C)CC)N[C@@H]2C=Cc3c([C@H](C)O)cc(nc3[C@H]2O)C(=O)O[C@@H]4C)n1)C(N)=O [Thiostrepton]",
    "Class": "Met"
  },
  {
    "Compound": "CC(C)c1c(C(=O)Nc2ccccc2)c(-c2ccccc2)c(-c2ccc(F)cc2)n1CC[C@@H](O)C[C@@H](O)CC(=O)O [Atorvastatin]",
    "Class": "Not met"
  }
]

Where do the numbers come from? From paper PMC5681660.
